Assay details: CNS pharmacokinetics by blood and brain-ventricle microdialysis, CE-UV
Format: in vivo, Sprague-Dawley Rats
Assay setup: Sprague-Dawley, rat, CSF (brain lateral ventricle microdialysate), iv, 40 mg/kg, Brain (CSF), 40 mg/kg iv

>  <Compound>
Cn1c(CCCCCCC(=O)NO)nc2cc(N(CCCl)CCCl)ccc21 [EDO-S101]

>  <half-life>
~9 min

$$$$

----------
Test system: SNB19
Assay details: GBM cell line viability IC50, SNB19
Type: cell-based
Assay setup: Homo sapiens, SNB-19; SNB19, MGMT neg.; no unit in Table 2; read-out: IC50
pIC50: −log10 of the molar value.
Property label: pIC50

>  <Molecule>
Cn1nnc2c(C(N)=O)ncn2c1=O [temozolomide]

>  <Result>
< 4.00

$$$$

----------
Assay details: CNS pharmacokinetics by blood and brain-ventricle microdialysis, CE-UV
Format: in vivo, Sprague-Dawley Rats
Assay setup: Sprague-Dawley, blood (jugular vein microdialysate), intravenous; Blood; rat, 40 mg/kg tail vein injection
Property label: Cmax (µM)

>  <Compound>
Cn1c(CCCCCCC(=O)NO)nc2cc(N(CCCl)CCCl)ccc21 [EDO-S101]

>  <Property label>
Cmax

>  <Readout number>
184

$$$$

----------
Assay details: CNS pharmacokinetics by blood and brain-ventricle microdialysis, CE-UV
Type: in vivo, Sprague-Dawley Rats
Assay setup: Sprague-Dawley, blood (jugular vein microdialysate); Blood; rat, 40 mg/kg iv; read-out: AUC (0-12) (converted)

>  <Smiles record>
Cn1c(CCCCCCC(=O)NO)nc2cc(N(CCCl)CCCl)ccc21

>  <AUC(0-t)>
13.7 µM·h

$$$$

----------
Assay details: CNS pharmacokinetics by blood and brain-ventricle microdialysis, CE-UV
Assay type: in vivo, Sprague-Dawley Rats
Assay setup: Sprague-Dawley; ratio of CSF and blood AUC; rat, 40 mg/kg iv; read-out: AUC ratio (Brain:Blood), CNS penetration

>  <Smiles record>
Cn1c(CCCCCCC(=O)NO)nc2cc(N(CCCl)CCCl)ccc21

>  <Kp>
0.165

$$$$

----------
Tested on: T98G
Assay details: GBM cell line viability IC50, T98G
Format: cell-based
Assay setup: Homo sapiens, T98G
Excerpt: In vitro experiments were devised in which a series of GBM cell lines representative for MGMT negative and MGMT positive tumour cells were used. […] Twelve glioblastoma cell lines representing grade III and IV gliomas and with different expression of MGMT, drug and radiotherapy sensitivity and five patient derived glioblastoma stem, cells were used (see above). […] Spheres were counted 5 days after treatment under an inverted microscope at ×4 magnification. A sphere was counted if it had at least 15 cells. […]
pIC50: −log10 of the molar value.

>  <Smiles record>
Cn1c(CCCC(=O)O)nc2cc(N(CCCl)CCCl)ccc21

>  <pIC50>
4.28

$$$$

----------
Measured IC50 accompanies every entry in the list below.
System: Mz-54
Assay details: GBM cell line viability IC50, Mz54
Type: cell-based
Property label: IC50 (µM)

>  <Compound>
Cn1c(CCCC(=O)O)nc2cc(N(CCCl)CCCl)ccc21 [bendamustine]

>  <Property label>
IC50

>  <Readout unit>
µM

>  <Readout number>
60

$$$$
>  <Compound>
Cn1c(CCCCCCC(=O)NO)nc2cc(N(CCCl)CCCl)ccc21 [EDO-S101]

>  <Property label>
IC50

>  <Readout unit>
µM

>  <Readout number>
12.7

$$$$
